- Target entity: Calcitonin gene-related peptide type 1 receptor (Homo sapiens, UniProt O60894+Q16602)
- Sequence (Q16602 whole entry, one chain of several): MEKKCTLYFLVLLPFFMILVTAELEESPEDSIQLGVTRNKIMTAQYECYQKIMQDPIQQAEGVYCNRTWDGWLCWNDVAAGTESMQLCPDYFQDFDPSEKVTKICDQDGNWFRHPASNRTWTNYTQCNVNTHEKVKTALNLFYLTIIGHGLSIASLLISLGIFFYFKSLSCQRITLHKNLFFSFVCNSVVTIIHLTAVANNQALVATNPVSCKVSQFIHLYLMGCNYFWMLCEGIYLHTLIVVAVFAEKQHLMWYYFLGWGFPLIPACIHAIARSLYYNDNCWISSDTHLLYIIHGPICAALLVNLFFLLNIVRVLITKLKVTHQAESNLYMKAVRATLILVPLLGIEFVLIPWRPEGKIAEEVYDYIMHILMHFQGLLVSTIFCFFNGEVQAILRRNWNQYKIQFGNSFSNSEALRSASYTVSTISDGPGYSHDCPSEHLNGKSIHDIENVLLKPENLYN
- Experiment description: Displacement of [125I]-CGRP from CGRP receptor in human SK-N-MC cells
- Assay type: cell-based
Reported metric: Ki

Cc1cc(CC(OC(=O)N2CCC(n3c(=O)[nH]c4ncccc43)CC2)c2cc(C(=O)N(C)C)cc(Cl)n2)cc2cn[nH]c12 (racemic); 0.071 nM
O=C(O[C@@H]1CC[C@@H](c2cccc(F)c2F)Cc2cccnc21)N1CCC(n2c(=O)[nH]c3ncccc32)CC1; 0.07 nM
O=C(O[C@H]1CC[C@H](c2cccc(F)c2F)Cc2cccnc21)N1CCC(n2c(=O)[nH]c3ncccc32)CC1; 940 nM
